Readings of pIC50 for the listed compounds
- Target under test: CYP1A2 (Homo sapiens)
- Sequence (P05177 1-516): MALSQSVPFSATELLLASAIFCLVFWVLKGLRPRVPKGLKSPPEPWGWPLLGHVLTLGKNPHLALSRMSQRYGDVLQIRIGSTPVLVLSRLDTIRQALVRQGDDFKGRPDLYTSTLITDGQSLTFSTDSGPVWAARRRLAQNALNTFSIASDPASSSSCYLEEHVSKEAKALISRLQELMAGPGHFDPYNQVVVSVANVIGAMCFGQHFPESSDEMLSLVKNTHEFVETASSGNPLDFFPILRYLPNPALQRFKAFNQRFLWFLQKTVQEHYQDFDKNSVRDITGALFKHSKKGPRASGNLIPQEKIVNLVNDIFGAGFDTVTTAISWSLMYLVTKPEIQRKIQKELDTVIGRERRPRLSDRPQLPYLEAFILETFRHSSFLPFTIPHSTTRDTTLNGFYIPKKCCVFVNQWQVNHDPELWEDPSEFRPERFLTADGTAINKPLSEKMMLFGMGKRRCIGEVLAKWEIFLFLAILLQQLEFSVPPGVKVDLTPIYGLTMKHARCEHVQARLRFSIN
- Assay procedure: CYP1A2 inhibition in live human HEK293 cells
- Type: cell-based
pIC50: −log10 of the molar value.

Query: Form field: reported pIC50 of COc1c2c(c(OC)c3occc13)OC(c1ccc(F)c(Br)c1)CC2=O (stereo not drawn)
Response: < 5.00

Query: Form field: reported pIC50 of COc1c2c(c(OC)c3occc13)OC(c1cccnc1)CC2=O (stereo not drawn)
Response: < 5.00

Query: Form field: reported pIC50 of COc1c2c(c(OC)c3occc13)OC(c1ccccc1)CC2=O (stereo not drawn)
Response: < 5.00

###

Readings of pIC50 for the listed compounds
- Target under test: UniProt:Q16678
- Sequence (Q16678 1-543): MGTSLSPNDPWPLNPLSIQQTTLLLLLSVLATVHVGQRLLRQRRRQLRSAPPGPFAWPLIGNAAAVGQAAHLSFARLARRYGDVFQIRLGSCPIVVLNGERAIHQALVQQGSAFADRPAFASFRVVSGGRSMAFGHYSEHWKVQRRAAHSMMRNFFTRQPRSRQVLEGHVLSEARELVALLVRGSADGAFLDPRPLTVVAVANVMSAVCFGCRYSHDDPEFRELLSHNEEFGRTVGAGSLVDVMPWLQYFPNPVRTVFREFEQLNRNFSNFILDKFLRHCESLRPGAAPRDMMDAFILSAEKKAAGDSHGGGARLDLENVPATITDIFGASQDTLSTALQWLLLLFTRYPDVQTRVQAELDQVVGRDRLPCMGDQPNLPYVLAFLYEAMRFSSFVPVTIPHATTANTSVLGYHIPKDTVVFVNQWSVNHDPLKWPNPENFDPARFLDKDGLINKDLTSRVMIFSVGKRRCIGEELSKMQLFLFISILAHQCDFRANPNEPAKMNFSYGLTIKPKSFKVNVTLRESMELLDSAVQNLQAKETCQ
- Assay procedure: CYP1B1 inhibition in live human HEK293 cells
- Assay type: cell-based
pIC50 (log units): -log10 of the concentration in mol/L.

Solved entries:
Compound	Recorded measurement
COc1c2c(c(OC)c3occc13)OC(c1ccccc1)CC2=O (stereo not shown)	6.25
COc1c(C(=O)C=Cc2cccnc2)c(O)c(OC)c2occc12	6.57
COc1c2c(c(OC)c3occc13)OC(c1ccc(F)c(Br)c1)CC2=O (stereo not shown)	4.62

Next, consider the following compound.
Query: Form field: reported pIC50 of COc1c2c(c(OC)c3occc13)OC(c1cccnc1)CC2=O (stereo not shown)
Response: 5.38
